system: LXFL 529 NSCLC; test: NCI tumour cell line growth inhibition, 48 h
MEASURED_METRIC: TGI

Use these answered entries as a reference point.
1. CC(C)N1CC2CC(CN(C(=O)c3ccc(Cl)cc3)C2)C1    > 100 µM
2. N=C1C=CC(=C(c2ccc(N)cc2)c2ccc(N)cc2)C=C1    14 µM
3. Cc1ccc(/C=C2\CCCCC2=O)cc1    > 100 µM
4. CCC(O)CCCCCCCCCCCCCCC(=O)O (stereo not drawn)    > 100 µM
5. Cc1cc(-c2ccccc2)nc(Nc2cc3ccccc3[nH]2)n1    > 100 µM

input: What does the data say about its TGI? Entry: O=C1c2ccccc2C(=O)N1CC#CCO
output: > 100 µM

input: Now consider CC1(C)CC(=O)C(CC2C(=O)CCCC2=O)C(=O)C1 .
output: > 100 µM

input: Now consider CCCCCCCCCCCCCCNCC(OC)OC .
output: 30 µM

###

system: BT-549 breast; experiment: NCI tumour cell line growth inhibition, 48 h; in the data active means GI50 below about 0.43 µM; inactive means the rest
Field 'call' accepts T for active, F for inactive

1. CN1CCN(Cc2ccc(NC(=O)c3cncc(C#Cc4ccc(N)nc4)c3)cc2C(F)(F)F)CC1    F
2. COC(=O)C1=C(C)NC(=S)NC1c1ccc(N(CCCl)CCCl)cc1Cl (stereo not given)    F
3. CCN(CC)CCOc1nc2ccccc2c2c1-c1ccc(OC)cc1C2=O    F
4. COc1c(C(N)=O)cc(-c2ccc(Cl)cc2)cc1-c1ccc(S(N)(=O)=O)cc1    F
5. Cc1[nH]nc(C(F)(F)F)c1Cc1sc2c(c1C(=O)N1C[C@](C)(O)CO1)c(=O)n(C)c(=O)n2C(C)C    F

input: Outcome logged for Cc1cc(OCc2ccc(C(F)(F)F)cc2)c2c(c1)C(=O)C=C(NCCN1CCCC1)C2=O in this assay:
output: F

input: Now consider O=C(Nc1nc2c(C(F)(F)F)cccc2s1)c1cc(Cl)ccc1O .
output: T

input: Now consider Cc1cc(I)cc(CN(C)CCCN2CCC(C)CC2)c1O .
output: F

input: Now consider COc1cc(OC)c(/C=C/C(=O)c2c(OC)cc(OC)cc2OC)c(OC)c1 .
output: F

input: Now consider c1ccc2c(N=NSc3ncnc4nc[nH]c34)c3ccccc3nc2c1 .
output: F

###

system: EKVX NSCLC; assay: NCI tumour cell line growth inhibition, 48 h
MEASURED_METRIC: TGI

Use these answered entries as a reference point.
1) c1ccc2c(c1)nnn2C1CCCCO1 (stereo not given)    > 100 µM
2) CCSC12OC3(CCCCCN3C1=O)C1C(=O)N(c3ccccc3)C(=O)C12 (stereo not given)    > 100 µM
3) N=C(N)SCc1nc(-c2ccc(Cl)cc2)no1    89.4 µM

input: What does the data say about its TGI? Entry: COc1ccc(NC(=O)CSC(=O)c2ccccc2)c(SCCSSCCSc2cc(OC)ccc2NC(=O)CSC(=O)c2ccccc2)c1
output: > 100 µM

input: Now consider Nc1nc(-c2ccc3c(c2)/C(=C\c2cc(Br)c(O)c(Br)c2)C(=O)N3)cs1 .
output: > 25 µM

###

tested on: 786-0 renal; experiment: NCI tumour cell line growth inhibition, 48 h
MEASURED_METRIC: TGI (µM)
Report as a plain number; the unit µM is understood.

1. Clc1nc2nc(N3CCNCC3)nc(N3CCCC3)c2[nH]1    32.1

input: What does the data say about its TGI? Entry: O=C(Nc1ccc(Br)cc1)C(=O)C(C(=O)c1ccc(Cl)c(Cl)c1)C1OC(=O)c2ccccc21 (stereo not given)
output: 30.9

###

compounds and their reported TGI
system: 786-0 renal; experiment: NCI tumour cell line growth inhibition, 48 h

1) CCCCCCCCN(CCCCCCCC)CC(O)c1cc(-c2ccccc2)nc2ccc(OC)cc12 (stereo unspecified)    > 100 µM

input: Report TGI for O=[N+]([O-])c1c(O)c2nonc2c2nn(-c3ccccc3)nc12 tested on 786-0 renal.
output: > 100 µM

input: Now consider OC(c1cc(C(F)(F)F)nc2c(Cl)cc(Cl)cc12)C1CCCCN1 (stereo unspecified) .
output: > 38.1 µM

input: Now consider O=C(NC1CCC[C@H]1OC(=O)c1ccccc1)c1ccccc1 (stereo partly specified) .
output: > 100 µM

input: Now consider CC1(C)CCCCCC(O)C(O)CCC(C)(C)C1=O (stereo unspecified) .
output: > 100 µM

input: Now consider CCOP(=O)(OCC)/C(=C/n1c(=S)[nH]c2ccccc21)C(=O)OC .
output: > 100 µM

###

test system: HOP-92 NSCLC; experiment: NCI tumour cell line growth inhibition, 48 h
molecules and their reported TGI
Report as a plain number; the unit µM is understood.

Use these answered entries as a reference point.
1) CN(C(=O)C(C)(C)C)c1ccccc1I(=O)=O    96.7
2) Oc1c(C(c2ccc(F)cc2)N2CCCCC2)ccc2cncnc12 (configuration not stated)    2.96
3) O=C1C=CC2C3C(=O)N(c4ccccc4)C(=O)C3C1N2Cc1ccccc1 (configuration not stated)    9.75
4) Clc1nc2nc(N3CCNCC3)nc(N3CCCC3)c2[nH]1    37.2
5) O=C(CSc1nc2ccc(I)cc2c(=O)n1Cc1ccccc1)Nc1ccccc1    75
6) C[Si](C)(C)OC1(C#N)c2ccccc2CCCC12CCCC2 (configuration not stated)    89.9
7) OC1OCC(COc2cc(Cl)c(Cl)cc2Cl)OC1O (configuration not stated)    94.3
8) Cc1ccc2sc3c(NCCCN)nc4ccccc4c3c(=O)c2c1    4.65

input: What does the data say about its TGI? Entry: COc1cc(/C=C2\[C@@H]3NC(Cc4c(OC)c(C)c(OC)c(OC)c43)C(=O)N2Cc2ccccc2)c(OC)c(C)c1OC
output: 69.1

###

molecules and their reported TGI
test system: K-562 leukemia; experiment: NCI tumour cell line growth inhibition, 48 h
Report as a plain number; the unit µM is understood.

Use these answered entries as a reference point.
1) Oc1c(C(Nc2ccccn2)c2ccccc2)ccc2cccnc12 (stereo not given)    24.9
2) NC1(c2cc3ccccc3s2)CCCCCC1    28.1

input: What does the data say about its TGI? Entry: Cn1nc(C(F)(F)F)cc1-c1cc(Cl)c(OCc2ccc(Cl)cc2)c(-c2ccc(Cl)c(C(F)(F)F)c2)c1O
output: 5.08

###

test system: HL-60(TB) leukemia; experiment: NCI tumour cell line growth inhibition, 48 h
molecules and their reported log10 of TGI
For clarity, the numbers are log10 values of TGI expressed in µM.

1) NC1CC(=O)c2c(-c3cccs3)sc(-c3cccs3)c21 (stereo not drawn)    1.79
2) Nc1nc(N)c2c(ccc3c2ccn3Cc2cccc([N+](=O)[O-])c2)n1    0.40

input: What does the data say about its log10 of TGI? Entry: CC(C)[C@@H](C(=O)O[C@@H]1/C=C/C(=O)O[C@@H](C)CCC/C=C/[C@@H]2C[C@H](O)C[C@H]21)N(C)C
output: 1.56

###

compounds and their reported TGI
tested on: SF-295 CNS; assay: NCI tumour cell line growth inhibition, 48 h

1. CCCCCCCCCC1CC(=O)OC2=C1C(=O)CCC2 (stereo unspecified)    > 100 µM

input: What does the data say about its TGI? Entry: COC(=O)N[C@@H]1C[C@H]2CC[C@]1(O[Si](C(C)C)(C(C)C)C(C)C)C(=O)C2
output: 39.7 µM

input: Now consider CC1(C)CC(=O)c2c(N)n[nH]c2C1 .
output: > 100 µM

input: Now consider CC1=C(CCC(C)CO)O[C@H]2C[C@H]3[C@@H]4CC[C@H]5C[C@@H](O)CC[C@]5(C)[C@H]4CC(=O)[C@]3(C)[C@@H]12 (stereo partly specified) .
output: > 49.9 µM

input: Now consider CCOC(=O)C1=C(Nc2ccc(OC)cc2)C(N)=NC1=N .
output: 8.32 µM

###

system: DU-145 prostate; experiment: NCI tumour cell line growth inhibition, 48 h
compounds and their reported TGI
Report as a plain number; the unit µM is understood.

Use these answered entries as a reference point.
1) c1ccc2c(N=NSc3ncnc4nc[nH]c34)c3ccccc3nc2c1    6.63
2) O=C1C=CC2C3C(=O)N(c4ccccc4)C(=O)C3C1N2Cc1ccccc1 (centres undefined)    22.4

input: Report TGI for COc1cc2c(cc1OCC(=O)Nc1ccc(Cl)cc1C(=O)c1ccccc1Cl)N=CC1CCCN1C2=O (centres undefined) tested on DU-145 prostate.
output: 8.56

input: Now consider Cc1cc2nc3c(C#N)c(C)c(CCCl)c(Cl)n3c2cc1C .
output: 13.6

input: Now consider O=C(Nc1ccc(Cl)c(Cl)c1)c1ccc(NC2=C(Cl)C(=O)N(Cc3ccccc3)C2=O)cc1 .
output: 16.6

input: Now consider CC(NNC(=S)N1CCN(c2ccccn2)CC1)c1nccc2ccccc12 (centres undefined) .
output: 13.8

input: Now consider CC12CCC(C1)C(C)(C)C2OC(=O)c1ccccc1N (centres undefined) .
output: 33.3

input: Now consider Cc1ccsc1C(NC(=O)c1ccccc1)c1cc(Cl)c2cccnc2c1O (centres undefined) .
output: 14.2
